# target-entity: human CCR2 (CC-Chemokine Receptor 2) (human, UniProt P41597 1-374)
# Sequence (P41597 whole entry): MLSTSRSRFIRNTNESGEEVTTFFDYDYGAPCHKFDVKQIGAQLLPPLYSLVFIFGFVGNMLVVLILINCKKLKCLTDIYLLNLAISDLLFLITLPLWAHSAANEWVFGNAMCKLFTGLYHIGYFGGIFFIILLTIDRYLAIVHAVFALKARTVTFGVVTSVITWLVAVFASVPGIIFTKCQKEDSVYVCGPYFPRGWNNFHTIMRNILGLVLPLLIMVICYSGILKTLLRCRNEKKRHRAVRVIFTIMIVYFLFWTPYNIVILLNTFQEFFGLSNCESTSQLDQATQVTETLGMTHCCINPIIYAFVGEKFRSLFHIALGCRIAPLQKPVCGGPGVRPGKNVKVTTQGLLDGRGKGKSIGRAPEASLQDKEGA
# method: cell-based or functional assay
The binders listed here are annotated with their IC50 in calcium flux assay using human THP-1 cells, ligand MCP-3 (22 nM).
Report the figure in nM without appending any unit label.

These recorded examples may help you get a feel for the data.
{"columns": ["binder", "numeric-readout"],
 "data": [
  ["D1 (antibody, human IgG1, V domains shown, also called CCR2 D1 IgG; anti-CCR2 D1 antibody) VH: EVQLVQSGAEVKKPGASVKVSCKASGYTFTGYHMHWVRQAPGQGLEWMGWINPNSGVTKYAQKFQGRVTMTRDTSINTAYMELSRLRFDDTDVYYCATGGFGYWGEGTLVTVSS VL: LPVLTQPPSVSKGLRQTATLTCTGNSNNVGNQGAAWLQQHQGQPPKLLSYRNHNRPSGVSERFSPSRSGDTSSLTITGLQPEDEADYYCLAWDSSLRAFVFGTGTKLTVL", 0.19],
  ["D1-1/45H8L1 (antibody, V domains shown, also called D1H1/45H8L1; D1-1B) VH: QVQLVQSGAEVKKPGASVKVSCKASGYTFTGYYMHWVRQAPGQGLEWMGWINPNSGVTKYAQKFQGRVTMTRDTSTSTVYMELSSLRSEDTAVYYCATGGFGYWGEGTLVTVSS VL: QAVLTQPPSVSKGLRQTATLTCTGNSNNVGNQGAAWLQQHQGQPPKLLSYRNHNRPSGVSERFSPSRSGDTSSLTITGLQPEDEADYYCLAWDSSLRAFVFGTGTKLTVL", 0.19]
]}

// below: IC50 in calcium flux assay using human THP-1 cells, ligand MCP-3 (22 nM) requested for another binder
Given item 1B2 (antibody, human IgG1, V domains shown) VH: EVQLVESGAEVKKPGASVKVSCKASGYTFTGYYMNWVRQAPGQGLEWMGWINPNSGGTKYAQKFQGRVTMTSDTSINTAYMELSRLRYDDTAVYYCATGGFQHWGQGTLVTVSS VL: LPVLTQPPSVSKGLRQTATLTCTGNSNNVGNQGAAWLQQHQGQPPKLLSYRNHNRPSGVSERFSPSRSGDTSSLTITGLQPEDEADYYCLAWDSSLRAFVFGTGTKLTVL , the value recorded as its IC50 in calcium flux assay using human THP-1 cells, ligand MCP-3 (22 nM) is 0.29

Attribution: patent US20130344070A1
